src = ChEMBL document CHEMBL1150165

Exercise: for every item that follows, state its recorded GI50.
Test system: NCI-H460
protocol_description: Growth inhibition of human NCI-H460 cells
Type: functional
Just the number plus its unit, please.

- compound: "COC(=O)[C@H](CCC=C(C)C)[C@@H]1[C@@H](O)C[C@]2(C)C3=CC[C@H]4C(C)(C)C(=O)CC[C@]4(C)[C@H]3CC[C@@]12C [METHYL KULONATE]"
  observed_measurement: "3.7 µg/mL"
- compound: "COC(=O)[C@H](C/C=C/C(C)(C)O)[C@@H]1[C@@H](O)C[C@]2(C)C3=CC[C@H]4C(C)(C)C(=O)CC[C@]4(C)[C@H]3CC[C@@]12C"
  observed_measurement: "6.3 µg/mL"
- compound: "C[C@H](C/C=C/C(C)(C)O)[C@@H]1[C@@H](O)C[C@]2(C)C3=CC[C@H]4C(C)(C)C(=O)CC[C@]4(C)[C@H]3CC[C@@]12C"
  observed_measurement: "1.9 µg/mL"

Need GI50 of `CC(C)=CCC[C@@H](C)[C@@H]1[C@@H](O)C[C@]2(C)C3=CC[C@H]4C(C)(C)C(=O)CC[C@]4(C)[C@H]3CC[C@@]12C` , thanks.
3.6 µg/mL
